experimentalTarget: Rap guanine nucleotide exchange factor 3 (Homo sapiens)
experimentalProtocol: Counterscreen qHTS for antagonist of cAMP-regulated guanine nucleotide exchange factor 3 (EPAC1) (AID 1645888);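 also: fluorescence loss as bound BODIPY-GDP is released from Rap1B; % of control where 0% means no effect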
measurementConditions: Rap1B-BODIPY-GDP nucleotide exchange, fluorescence; series mostly up to 154 µM
Records with an inconclusive call do not appear. The source made the active and inactive calls. Calls follow the shape of the dose curve; as a rule, active = well fitted inhibition curve with a large enough effect; inconclusive = small, poorly fitted or top-dose-only effect; inactive = no such curve, though single readings can be large or run the other way.
assayEndpoint: activity change, negative = inhibition

Reference set (8 entries):
{"compound": "Cc1cc(-c2ccc(F)cc2)n2ncc(-c3ccccc3)c2n1", "assayEndpoint": "activity change, negative = inhibition", "resultValue": "inactive"}
{"compound": "CS(=O)(=O)N1CCN(c2ccc([N+](=O)[O-])c(NCc3ccc(Cl)cc3)c2)CC1", "assayEndpoint": "activity change, negative = inhibition", "resultValue": "-6.75% [at 30.8 µM] (inactive)"}
{"compound": "Cc1cc(Br)cc(Cl)c1OC(=O)c1ccncc1", "assayEndpoint": "activity change, negative = inhibition", "resultValue": "inactive"}
{"compound": "O=C(O)CCc1ccc(-c2ccc(Br)cc2)n1-c1ccc(O)cc1", "assayEndpoint": "activity change, negative = inhibition", "resultValue": "inactive"}
{"compound": "C/C=C\\C=C/C(=O)Nc1cccc(C2=NOC3(C2)C[C@H](C(N)=O)N(C(=O)c2ccc(OC)cc2)C3)c1 (stereo not given in full)", "assayEndpoint": "activity change, negative = inhibition", "resultValue": "inactive"}
{"compound": "Cc1cc(C)c(S(=O)(=O)/N=C2\\C=C(Nc3ccc(C(=O)O)cc3)C(=O)c3ccccc32)c(C)c1", "assayEndpoint": "activity change, negative = inhibition", "resultValue": "inactive"}
{"compound": "COc1cc(/C=C(\\C#N)c2nc3ccccc3o2)ccc1O", "assayEndpoint": "activity change, negative = inhibition", "resultValue": "3.99% [at 30.8 µM] (inactive)"}
{"compound": "COc1ccc(C(=O)Nc2nc(-c3ccc(OC)cc3)c(-c3ccc([N+](=O)[O-])cc3)s2)cc1", "assayEndpoint": "activity change, negative = inhibition", "resultValue": "inactive"}

IN: Param item = Cc1ccc(Cc2c(-c3cccc(Cl)c3)nc3ccc(Br)cn23)cc1 ; retrieve measured activity change, negative = inhibition.
OUT: inactive

IN: Param item = COc1ccc(/C=N/NC(=O)c2ccccc2O)cc1Cn1nnc2ccccc21 ; retrieve measured activity change, negative = inhibition.
OUT: inactive

Hey, just so you know, these numbers are from PubChem BioAssay (NCATS).
